Origin of measurements: patent US20160297889A1

Attribute: ADCC cytotoxic activity (51Cr release) on T24
TARGET OF ASSAY: T1, CAPRIN-1 protein expressed on the membrane surface of human cancer cells (human, UniProt Q14444 2-709)
T1 sequence (looked up): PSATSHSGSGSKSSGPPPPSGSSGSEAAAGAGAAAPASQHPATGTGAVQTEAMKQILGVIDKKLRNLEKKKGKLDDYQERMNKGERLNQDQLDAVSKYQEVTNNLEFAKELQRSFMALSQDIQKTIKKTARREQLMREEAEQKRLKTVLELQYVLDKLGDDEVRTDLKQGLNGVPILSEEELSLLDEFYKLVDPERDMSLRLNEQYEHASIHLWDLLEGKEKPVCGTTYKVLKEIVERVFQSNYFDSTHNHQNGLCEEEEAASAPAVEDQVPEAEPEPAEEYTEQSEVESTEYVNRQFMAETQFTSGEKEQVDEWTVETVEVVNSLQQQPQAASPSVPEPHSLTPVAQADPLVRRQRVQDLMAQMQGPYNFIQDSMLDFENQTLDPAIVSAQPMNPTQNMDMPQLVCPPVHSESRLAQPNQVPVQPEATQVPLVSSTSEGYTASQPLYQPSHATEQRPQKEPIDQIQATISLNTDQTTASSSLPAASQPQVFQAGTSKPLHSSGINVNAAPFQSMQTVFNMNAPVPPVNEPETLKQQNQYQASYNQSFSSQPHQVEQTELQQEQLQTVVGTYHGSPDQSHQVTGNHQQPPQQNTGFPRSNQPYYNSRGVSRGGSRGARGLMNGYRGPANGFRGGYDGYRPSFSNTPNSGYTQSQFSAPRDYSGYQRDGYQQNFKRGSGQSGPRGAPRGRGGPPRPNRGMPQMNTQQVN
PROCEDURE SUMMARY: cell-based or functional assay

Answered cases to consult:
humanized antibody #9 (antibody, V domains shown) VH: EQSLVESGGGLVQPGGSLRLSCAASGFSLSSHSLGWVRQAPGKGLEWIGDIRSGGSAYYANWAKGRFTISRDNSKNTLYLQMNSLRAEDTAVYYCTRTNGPSDLTNRLDLWGQGTLVTVSS VL: DIVLTQSPSSLSASVGDRVTINCQASQSLYNNENLAWFQQKPGKVPKRLIYGASTLASGVSSRFSGSGSGTEFTLTISSLQCEDFAIYYCLGEFSCGSADCFAFGGGTKVEIK | ≥ 30%
humanized antibody #7 (antibody, V domains shown) VH: EVQLVESGGGLVQPGGSLRLSCAASGFSLSSHSLGWVRQAPGKGLEWIGDIRSGGSAYYANWAKGRFTISRDNSKNTLYLQMNSLRAEDTAVYYCTRTNGPSDLTNRLDLWGQGTLVTVSS VL: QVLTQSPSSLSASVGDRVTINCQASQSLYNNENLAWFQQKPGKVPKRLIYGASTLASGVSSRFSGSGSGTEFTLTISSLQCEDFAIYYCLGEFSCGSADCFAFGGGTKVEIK | ≥ 36%
humanized antibody #3 (antibody, V domains shown) VH: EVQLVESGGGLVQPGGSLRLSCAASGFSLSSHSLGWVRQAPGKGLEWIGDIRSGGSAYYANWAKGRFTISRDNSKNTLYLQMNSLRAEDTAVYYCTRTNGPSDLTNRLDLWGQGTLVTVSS VL: EQVLTQSPSSLSASVGDRVTINCQASQSLYNNENLAWFQQKPGKVPKRLIYGASTLASGVSSRFSGSGSGTEFTLTISNLQPEDFAIYYCLGEFSCGSADCFAFGGGTKVEIK | ≥ 33%
humanized antibody #0 (antibody, V domains shown) VH: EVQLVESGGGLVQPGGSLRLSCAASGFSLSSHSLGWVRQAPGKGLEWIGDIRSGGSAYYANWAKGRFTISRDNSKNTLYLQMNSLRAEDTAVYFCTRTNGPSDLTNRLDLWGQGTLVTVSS VL: AIQMTQSPSSLSASVGDRVTINCQASQSLYNNENLAWFQQKPGKAPKRLIYGASTLASGVSSRFSGSGSGTDFTLTISSLQPEDFAIYYCLGEFSCGSADCFAFGGGTKVEIK | ≥ 30%
humanized antibody #2 (antibody, V domains shown) VH: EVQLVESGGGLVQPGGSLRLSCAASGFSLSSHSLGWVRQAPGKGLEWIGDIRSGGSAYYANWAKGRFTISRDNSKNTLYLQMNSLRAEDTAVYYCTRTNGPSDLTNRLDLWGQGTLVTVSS VL: EIVLTQSPSSLSASVGDRVTINCQASQSLYNNENLAWFQQKPGKVPKRLIYGASTLASGVSSRFSGSGSGTEFTLTISNLQPEDFATYYCLGEFSCGSADCFAFGGGTKVEIK | ≥ 33%

Then this binder:
Task: Field request: ADCC cytotoxic activity (51Cr release) on T24 | item: humanized antibody #1 (antibody, V domains shown) VH: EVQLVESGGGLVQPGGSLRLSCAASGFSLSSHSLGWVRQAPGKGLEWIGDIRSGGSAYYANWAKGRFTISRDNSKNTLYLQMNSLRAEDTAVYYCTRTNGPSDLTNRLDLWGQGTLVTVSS VL: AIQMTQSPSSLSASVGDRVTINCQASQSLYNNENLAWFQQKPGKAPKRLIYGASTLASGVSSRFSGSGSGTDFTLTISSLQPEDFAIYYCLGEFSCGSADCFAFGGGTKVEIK
Output: ≥ 30%
